B1: MED27 (parent)
chain: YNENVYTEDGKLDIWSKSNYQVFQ

Variants of: B1
Experiment: protein stability index of a GFP-peptide fusion (GPS, HEK-293T) (PSI 1-6); higher = more stable;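 further: lentivirally expressed fusions sorted by FACS into six bins by GFP to DsRed ratio, PSI derived from sequencing read proportions per bin multiplied by bin number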
Conditions: c terminus: a fixed tail appended
// reported protein stability index for each item listed
Give a plain numeric answer without units written out.

// solved cases for protein stability index follow
INSERT INTO results (variantnotation, observed) VALUES
  ('Y1I', 2.5),
  ('T7Y', 2.46),
  ('V22C', 2.56),
  ('G10Y', 1.76),
  ('I14N', 3.28);

Turning now to a further variant:
// protein stability index value for D9V : 1.98

meta.source: the supplement of paper PMC10567573
